Attribution: paper PMC12260505

experiment: Plasma PF-06873600 pharmacokinetics (LC/MS-MS, noncompartmental analysis); type: in vivo, human; details: Day -4; Part 1C single dose 20 mg MR Long Duration
observation_type: Cmax, geometric mean (%CV) (ng/mL)

compound_string	u	measured_value
C[C@@]1(O)CCC[C@H]1n1c(=O)c(C(F)F)cc2cnc(NC3CCN(S(C)(=O)=O)CC3)nc21	ng/mL	39

---

experiment: Plasma PF-06873600 pharmacokinetics (LC/MS-MS, noncompartmental analysis); type: in vivo, human; conditions: Cycle 1 Day 1; Part 1A 50 mg BID IR

compound_string	Cmax, geometric mean (%CV), ng/mL
C[C@@]1(O)CCC[C@H]1n1c(=O)c(C(F)F)cc2cnc(NC3CCN(S(C)(=O)=O)CC3)nc21	394

---

assay: Plasma PF-06873600 pharmacokinetics (LC/MS-MS, noncompartmental analysis); format: in vivo, human; details: Day -7; Part 1C single dose 20 mg MR Short Duration
observation_type: Cmax, geometric mean (%CV)

compound_string	measured_value
C[C@@]1(O)CCC[C@H]1n1c(=O)c(C(F)F)cc2cnc(NC3CCN(S(C)(=O)=O)CC3)nc21	73.7 ng/mL

---

experiment: Plasma PF-06873600 pharmacokinetics (LC/MS-MS, noncompartmental analysis); format: in vivo, human; conditions: Cycle 1 Day 1; Part 1A 35 mg BID IR
observation_type: Cmax, geometric mean (%CV)

molecule	measured_value
C[C@@]1(O)CCC[C@H]1n1c(=O)c(C(F)F)cc2cnc(NC3CCN(S(C)(=O)=O)CC3)nc21 [PF-06873600]	388 ng/mL

---

assay: Plasma PF-06873600 pharmacokinetics (LC/MS-MS, noncompartmental analysis); type: in vivo, human; conditions: Cycle 1 Day 15; Part 1C MR 30 mg BID long duration
observation_type: Cmax, geometric mean (%CV) (ng/mL)

compound_string	measured_value
C[C@@]1(O)CCC[C@H]1n1c(=O)c(C(F)F)cc2cnc(NC3CCN(S(C)(=O)=O)CC3)nc21	82.1
